Tested on: mice
Experiment: Hypnotic activity: loss of righting reflex after intravenous injection in mice
Type: in vivo
Conditions: intravenous injection over 10 seconds, dose causing loss of righting reflex for minimum 30 seconds in 50% of treated mice
In this section we review reported HD50 (hypnotic dose50) values for a set of compounds.
Please respond with the number in µmol/kg and leave the unit unwritten.

Here's what some known entries look like.
COC(=O)CC(C(=O)Oc1c(OC)cccc1OC)N1CCCCCC1 (stereo not drawn) [Example 30a] :: 23
COc1cc(C)cc(OC)c1OC(=O)C(CCSC)N1CCOCC1 (stereo not drawn) [Example 39a] :: 35
COC(=O)CC(C(=O)Oc1c(OC)cc(C)cc1OC)N1CCCCC1 (stereo not drawn) [Example 28b] :: 48
COCCCN(CCCOC)C(COC)C(=O)Oc1c(OC)cc(C)cc1OC (stereo not drawn) :: 46

Ask: Item COCCC(C(=O)Oc1c(OC)cccc1OC)N1CCCOCC1 (stereo not drawn) [Example 51a] has what recorded HD50 (hypnotic dose50)?
Result: 15

Ask: Item CCOc1cccc(OCC)c1OC(=O)C(CN1CCOCC1)N1CCOCC1 (stereo not drawn) [Example 20b] has what recorded HD50 (hypnotic dose50)?
Result: 24
